biological target: GnRH receptor (Homo sapiens, UniProt P30968); construct: expressed in transfected cells; assay: GnRH receptor membrane binding assay; conditions: GnRH receptor membrane binding assay, [125I]-labeled GnRH peptide; read-out: Ki
Sequence (P30968 whole entry, species assumed): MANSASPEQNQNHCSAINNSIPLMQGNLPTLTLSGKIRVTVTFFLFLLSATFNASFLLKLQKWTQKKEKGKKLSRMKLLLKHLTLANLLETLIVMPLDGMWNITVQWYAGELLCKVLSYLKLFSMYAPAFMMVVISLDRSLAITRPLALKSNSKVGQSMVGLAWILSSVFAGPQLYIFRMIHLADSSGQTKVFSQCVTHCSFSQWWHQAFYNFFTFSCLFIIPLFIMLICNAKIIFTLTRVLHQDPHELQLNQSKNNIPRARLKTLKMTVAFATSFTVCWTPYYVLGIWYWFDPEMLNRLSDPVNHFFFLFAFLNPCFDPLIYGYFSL
Listed below: Ki values for each entry.

As a guide, the following entries are already answered.
* COc1cccc(-c2c(C)n(Cc3c(F)cccc3F)c(=O)n(CC(C)NC(C)C(C)C)c2=O)c1F (centres unmarked) | < 100 nM
* COc1cccc(-c2c(C)n(Cc3c(F)cccc3F)c(=O)n(C[C@H](Cc3ccccc3)N(C)C)c2=O)c1F | < 100 nM
* Cc1c(-c2ccc3c(c2)OCCO3)c(=O)n(CCNCCN(C)C)c(=O)n1Cc1c(F)cccc1F | < 100 nM
* COc1cccc(-c2c(C)n(Cc3c(F)cccc3F)c(=O)n(CCN3CCC(NC(=O)C(F)(F)F)C3)c2=O)c1 (centres unmarked) | < 100 nM
* CCCN(CCn1c(=O)c(-c2ccc(C(C)C)cc2)c(C)n(Cc2c(F)cccc2F)c1=O)C(C)CC (centres unmarked) | < 100 nM
* Cc1c(-c2ccccc2F)c(=O)n(CCNC2CCC(C)CC2)c(=O)n1Cc1c(F)cccc1F (centres unmarked) | < 100 nM
* COc1cccc(-c2c(C)n(Cc3c(F)cccc3F)c(=O)n([C@H](C)CNCc3ccccc3C)c2=O)c1F | < 100 nM

Inquiry: Give its Ki value. Item: Cc1c(-c2csc(Cc3ccccc3)n2)c(=O)n(C[C@H](N)c2ccccc2)c(=O)n1Cc1c(F)cccc1F
Reply text: < 100 nM

###

biological target: GnRH receptor (Homo sapiens); construct: expressed in transfected cells; assay: GnRH receptor membrane binding assay; conditions: GnRH receptor membrane binding assay, [125I]-labeled GnRH peptide; read-out: Ki
quantity name: Ki

As a guide, the following entries are already answered.
• CCC(C)C(C)CN[C@@H](C)Cn1c(=O)c(-c2cccc(OC)c2F)c(C)n(Cc2c(F)cccc2F)c1=O (stereo partly shown) [9-678] = < 100 nM
• Cc1c(-c2ccc3c(c2)OCO3)c(=O)n(CCN2CCN(c3cccc(Cl)c3)CC2)c(=O)n1Cc1c(F)cccc1F [9-70] = < 100 nM
• COc1cccc(-c2c(C)n(Cc3c(F)cccc3F)c(=O)n(CCN3CC[C@@H](NC(C)=O)C3)c2=O)c1 [9-7] = < 100 nM
• CCN(CC)CCn1c(=O)c(-c2ccc(Oc3ccccc3)cc2)c(C)n(Cc2c(F)cccc2F)c1=O [9-224] = < 100 nM
• Cc1c(-c2csc(-c3ccc(F)cc3)n2)c(=O)n(C[C@H](N)c2ccccc2)c(=O)n1Cc1c(F)cccc1F [12-24] = < 100 nM
• COc1ccc(CCNCCn2c(=O)c(-c3ccccc3F)c(C)n(Cc3c(F)cccc3F)c2=O)cc1OC [9-229] = < 100 nM

Inquiry: Give its Ki value. Item: COc1cccc(-c2c(C)n(Cc3c(F)cccc3F)c(=O)n(CCN(C)Cc3ccccn3)c2=O)c1 [1-3]
Reply text: < 100 nM

Inquiry: Give its Ki value. Item: CCc1c(-c2cccc(OC)c2F)c(=O)n(C[C@H](N)c2ccccc2)c(=O)n1Cc1c(F)cccc1F [15-1]
Reply text: < 100 nM

Inquiry: Give its Ki value. Item: COc1ccc(-c2c(C)n(Cc3c(F)cccc3F)c(=O)n(C[C@H](N)c3ccccc3)c2=O)cc1 [8-100]
Reply text: < 100 nM

Inquiry: Give its Ki value. Item: Cc1c(-c2csc(-c3ccccc3)n2)c(=O)n(C[C@H](N)c2ccccc2)c(=O)n1Cc1c(F)cccc1F [12-4]
Reply text: < 100 nM

Inquiry: Give its Ki value. Item: CCc1ccc(CN[C@@H](C)Cn2c(=O)c(-c3cccc(OC)c3F)c(C)n(Cc3c(F)cccc3F)c2=O)o1 [9-665]
Reply text: < 100 nM

Inquiry: Give its Ki value. Item: COc1cccc(-c2c(C)n(Cc3c(F)cccc3F)c(=O)n(C[C@H](CC(C)C)N(C)C)c2=O)c1F [9-704]
Reply text: < 100 nM

Inquiry: Give its Ki value. Item: COc1cccc(-c2c(C)n(Cc3c(F)cccc3F)c(=O)n(C[C@H](C)NCc3[nH]cnc3C)c2=O)c1F [9-602]
Reply text: < 100 nM

Inquiry: Give its Ki value. Item: CCOc1ccccc1CNC[C@@H](C)n1c(=O)c(-c2cccc(C)c2F)c(C)n(Cc2c(F)cccc2F)c1=O [9-636]
Reply text: < 100 nM

Inquiry: Give its Ki value. Item: CCN(CC)CCN(C)CCn1c(=O)c(-c2ccc(C(C)C)cc2)c(C)n(Cc2c(F)cccc2F)c1=O [9-263]
Reply text: < 100 nM

Inquiry: Give its Ki value. Item: Cc1cccnc1CCN1CCCC1Cn1c(=O)cc(C)n(Cc2c(F)cccc2F)c1=O (stereo not shown) [9-415]
Reply text: < 100 nM

Recorded values, source patent US7462625B2.
